The measurements presented in this section are drawn from PubChem BioAssay (NCI).

# Test system: MALME-3M melanoma
# experiment-notes: NCI-60 one-dose screen, 48 h (100 = growth as untreated, 0 = no growth, -100 = all killed)
# test-settings: 10 µM unless noted
This is part of a sample that, as a whole, favours compounds with a hit. Of some 83,000 tested, about 20% had one in any assay. Activity calls are given as the source filed them. The calls were made as follows: active = growth percent below 10; inactive = the rest.
measurement-name: growth

What value of growth has been recorded for this entry: COc1cccc(/C=N\NC(=O)c2ccncc2)c1O
68.3% (inactive)

growth for C/C(=C\CCc1ccoc1)CC/C=C(\C)CCCNc1ccc(F)cc1 ?
88.2% (inactive)

Report growth for O=C(O)CCNS(=O)(=O)c1ccc(-c2ccccc2)cc1 please.
112% (inactive)

Requested read-out: growth. Entry: COc1ccc(-c2cc(-c3cccnc3)nc3sc(C(=O)Nc4ccccc4)c(N)c23)cc1OC
109% (inactive)

May I ask what growth has been recorded for NC(=O)NC1(C(=O)O)CCCC1 ?
114% (inactive)

Look up growth: COc1ccc2ncccc2c1Cc1c(OC)ccc2ncccc12
55.9% (inactive)

growth lookup needed for N#Cc1ccc(-c2csc(Nc3ccc4nc5n(c(=O)c4c3)CCC5)n2)cc1 , thanks.
102% (inactive)

Endpoint output: growth of O=[N+]([O-])c1ccc2[nH]cc(-c3c4ccccc4cc4[nH]c5ccc([N+](=O)[O-])cc5c34)c2c1 . Value?
26.5% (inactive)

// growth lookup, key: CC1=C([Se]CC(OC(=O)[C@@H](CSSC(C)(C)C)NC(=O)C(C)(C)C)C(=O)NCCCCCC(=O)OCc2ccccc2)C(=O)c2ccccc2C1=O (stereo not given in full)
-39.1% (active)

Look up growth: CC1C(=O)NC2=Nc3ccccc3C(=O)NN21 (stereo not given)
104% (inactive)

What measured growth goes with O=C(COc1cccc(/C=C2\Oc3ccc4ccccc4c3C2=O)c1)c1ccc([N+](=O)[O-])cc1 ?
67.2% (inactive)

# input compound: Cc1ccc(-c2csc(N)n2)cc1 ; wanted: its growth
124% (inactive)

Using the record for COC(=O)[C@H](Cc1cnc[nH]1)NC(=O)[C@@H](NC(=O)Nc1cc(C(F)(F)F)cc(C(F)(F)F)c1)C(C)C , report its growth.
-94.4% [100 µM] (active)

Tell me the measured growth of COc1ccc(CNC(=O)c2c(C)n([O-])c3ccc(OC)cc3[n+]2=O)cc1 , please.
98.6% (inactive)

If you can, please state the reported growth value of CCN(Cc1cccc(S(=O)(=O)[O-])c1)c1ccc(C(=C2C=CC(=[N+](CC)Cc3cccc(S(=O)(=O)O)c3)C=C2)c2ccccc2S(=O)(=O)O)cc1 .
118% (inactive)

Returns the measured growth for the input compound. Input: c1ccc2c(-c3nc4ccccc4[nH]3)cccc2c1
38.1% (inactive)

Please look up its growth: N#CSCC1CC(O)(c2ccccc2)C(c2ccccc2)C(c2ccc(Cl)cc2)O1 (stereo not given)
-80.8% (active)

Reported growth, compound COc1ccc(OC)c2c1CCC1(C2)NC(=O)NC1=O (stereo not given) : ____
96.5% (inactive)

Reported growth, compound Cn1c(N2N=C(c3ccc(Cl)cc3)CC2c2ccccc2)nc(-c2ccccc2)c(C#N)c1=O (stereo not given) : ____
97.6% (inactive)

For the compound shown here, COc1cc(Cl)cc(-c2nn(-c3cccc(NC(=O)c4cc(C(F)(F)F)cc(C(F)(F)F)c4)c3)cc2-c2ccncc2)c1 , give the reported growth.
104% (inactive)

What value of growth has been recorded for this entry: C=C1CCC2C3(C)COC(c4ccccc4)OC3CCC2(C)C1C/C=C1/C(=O)OCC1OC(C)=O (stereo not given)
105% (inactive)

Entry CC(NC(N)=S)c1ccccc1 (stereo not given) has what growth?
105% (inactive)

Returns the measured growth for the input compound. Input: C[C@]12CC[C@H](O)CC1=CC[C@@H]1[C@@H]2CC[C@]2(C)C(c3cccnc3)=CC[C@@H]12
70.8% (inactive)

Fill blank: measured growth of the compound CCN1CC2=C(Nc3nc(SC)[nH]c(=O)c3C2c2cc(OC)c(OC)c(OC)c2)/C(=C/c2cc(OC)c(OC)c(OC)c2)C1 (stereo not given) is ____.
112% (inactive)

So what's the measured growth for this one? O=C1c2cccc(NCCN=Cc3ccccc3O)c2C(=O)c2c(NCCN=Cc3ccccc3O)cccc21
21.8% (inactive)

What value of growth has been recorded for this entry: Clc1ccc(C2c3ccccc3-c3nccn32)c(Cl)c1 (stereo not given)
83.8% (inactive)

Which growth reading was recorded for the compound Oc1c(Cl)cc(Cl)c(Cl)c1Cc1c(O)c(Cl)cc(Cl)c1Cl ?
-21.1% (active)

Could you tell me which growth is on file for O=C(CNC(=O)c1cccc2ccccc12)Nc1ccccc1Cc1ccccc1 ?
46.8% [5 µM] (inactive)

Which growth value belongs to O=C(c1ccccc1)C(CN1CCCCC1)c1ccccc1 (stereo not given) ?
-3.92% (active)

What value of measured growth is listed for CC(=O)Nc1ccc(C(=O)COc2cccc(/C=C3\CCc4ccccc4C3=O)c2)cc1 ?
19.6% (inactive)

Value lookup for growth; key = C=CCNC(=O)/C(=C/c1cccc([N+](=O)[O-])c1)NC(=O)c1ccccc1
102% (inactive)

Look up growth: CCCCc1n(Cc2ccc3ccccc3c2)cc[n+]1Cc1ccc2ccccc2c1
-52.8% (active)

So what does the record say about growth for Clc1ccc(C2=NN(c3ccc(Cl)cc3)C(c3cccc(Nc4ccnc5cc(Cl)ccc45)c3)C2)cc1 (stereo not given) ?
87.1% (inactive)

Please look up its growth: Cc1ccc(S(=O)(=O)NCCN2c3nc4ccccc4cc3Sc3cc4ccccc4nc32)cc1
128% (inactive)

Bench note: what growth did NC(=O)NS(=O)(=O)c1ccc(N2N=C(C(F)(F)F)CC2c2cc(C(F)(F)F)cc(C(F)(F)F)c2)cc1 (stereo not given) show?
87.4% (inactive)

Which growth reading was recorded for the compound Cc1n(Cc2ccc3ccccc3c2)cc[n+]1Cc1ccc2ccccc2c1 ?
-20.9% (active)

Which growth reading was recorded for the compound N[C@H](CS)C(=O)O ?
91% (inactive)

So what's the measured growth for this one? CCCCN1c2nc3ccccc3cc2Sc2cc3ccccc3nc21
117% (inactive)

// returns reported growth for input CCOc1cc(/C=C/C(=O)C(C(=O)/C=C/c2ccc(OC(=O)CNc3nnc(C)s3)c(OCC)c2)C(=O)CNc2nnc(C)s2)ccc1OC(=O)CNc1nnc(C)s1
-20.8% (active)

What growth value was documented for this compound, O=C(Nc1nn2c(-c3cc(C(F)(F)F)cc(C(F)(F)F)c3)nnc2s1)C1CCCC1 ?
10.4% (inactive)

----------
# System: COLO 205 colon
# experiment-notes: NCI-60 one-dose screen, 48 h (100 = growth as untreated, 0 = no growth, -100 = all killed)
# test-settings: 10 µM unless noted
Compounds without any hit were thinned out: in the full panel of roughly 83,000, 20% have a hit. Calls of active or inactive are those of the source. Rule for the calls: active = growth percent below 10; inactive = the rest.
measurement-name: growth

Sample CC(C)=CCNc1ncnc2c1ncn2C1OC(COP(=O)(O)O)C(O)C1O (configuration not stated) — what was its growth?
63% (inactive)

# input molecule: CCCCN=C(N)c1ccc(OCCSCCOc2ccc(C(N)=NCCCC)cc2)cc1 ; wanted: its growth
7.64% (active)

// lookup growth for O=CN1N=C(c2ccc(Cl)cc2)CC1c1cccc(Nc2ccnc3cc(Cl)ccc23)c1 (configuration not stated)
-26.9% (active)

Consider the molecule shown here: Cc1cc(C)nc(NS(=O)(=O)c2ccc(Nc3nc4nc(SCc5ccccc5)nc(-c5ccc(O)cc5)c4c(=O)[nH]3)cc2)n1 What is its recorded growth?
103% (inactive)

Query: growth; subject: Cc1cc(=O)[nH]c(/C(=N/Nc2ccccc2)C(=O)c2ccc(Cl)cc2)n1
106% (inactive)

Which measured growth value corresponds to COc1ccc(-c2cc(-c3cccnc3)nc3sc(C(=O)Nc4ccccc4)c(N)c23)cc1OC ?
72.6% (inactive)

Given CC1CN(C2CCCCC2)C(=O)NC1=O (configuration not stated) , state its recorded growth.
101% (inactive)

----------
# Tested on: A498 renal
# experiment-notes: NCI-60 one-dose screen, 48 h (100 = growth as untreated, 0 = no growth, -100 = all killed)
# test-settings: 10 µM unless noted
About 83,000 compounds went through this panel and 20% of them were active in at least one assay; those are over-represented in the sample as a whole. The source made the active and inactive calls. How the source made its calls: active means growth percent below 10; inactive means the rest.
measurement-name: growth

What value of growth has been reported for the following molecule? COc1cc(/C=C2\CN(C)CC3=C2Nc2nc(SC)[nH]c(=O)c2C3c2cc(OC)c(OC)c(OC)c2)cc(OC)c1OC (configuration not stated)
95.9% (inactive)

Sample N#Cc1c(NC(=O)c2ccco2)[n+]([O-])c2cc(Cl)c(Cl)cc2[n+]1[O-] — what was its growth?
109% (inactive)

May I ask what growth has been recorded for CCOC(=O)CCN(c1c(Cl)ssc1=O)C(C)C ?
106% (inactive)

Can you look up the measured growth of N=C1c2nc3n(c2C(=O)c2nc4n(c21)CCCCC4)CCCCC3 for me?
91.6% (inactive)

Which growth value belongs to O=C(Nc1nn2c(-c3cc(C(F)(F)F)cc(C(F)(F)F)c3)nnc2s1)C1CCCC1 ?
-21.8% (active)

Reported growth, molecule CCOc1nc(-c2ccco2)n2nc(-c3ccco3)cc2n1 : ____
83.5% (inactive)

For the molecule CC(=O)Nc1c(Cl)cc2c(c1Cl)Cc1cc([N+](=O)[O-])ccc1-2 , what growth is on record?
88.8% (inactive)

Would you kindly share the measured growth for CCOC(=O)CCC(=O)O[C@H]1[C@H](O[C@@H]2[C@@H](C)[C@H](O[C@H]3C[C@@](C)(OC)[C@@H](O)[C@H](C)O3)[C@@H](C)C(=O)O[C@H](CC)[C@@](C)(O)[C@H](O)[C@@H](C)C(=O)[C@H](C)C[C@@]2(C)O)O[C@H](C)C[C@@H]1N(C)C ?
120% (inactive)

If you can, please state the reported growth value of CCC(C)C1NC(=O)C(CCNCS(=O)(=O)O)NC(=O)C(NC(=O)C(CCNCS(=O)(=O)O)NC(=O)C(NC(=O)C(CCNCS(=O)(=O)O)NC(=O)CCCCC(C)C)C(C)O)CCNC(=O)C(C(C)O)NC(=O)C(CCNCS(=O)(=O)O)NC(=O)C(CCNCS(=O)(=O)O)NC(=O)C(C(C)CC)NC1=O (configuration not stated) .
88.8% (inactive)

Consider the molecule shown here: CN1C(=O)C(C2=NN(C=O)C(c3ccc(F)cc3)C2)C(=O)N(C)C1=O (configuration not stated) What is its recorded growth?
96.7% (inactive)

Quick one: growth for COc1ccc(C2=NN(C=O)C(c3cccc(Nc4ccnc5cc(Cl)ccc45)c3)C2)cc1 (configuration not stated) ?
27.4% (inactive)

What growth value was documented for this molecule, BrC1CC(Br)c2c1c1c(c3c2C(Br)CC3Br)C(Br)CC1Br (configuration not stated) ?
117% (inactive)

Value lookup for growth; key = O=C(N/N=C/c1cccc([N+](=O)[O-])c1)c1ccc(Br)o1
129% (inactive)

Given COc1ccc(CC(=O)Nc2nn3c(-c4cc(C(F)(F)F)cc(C(F)(F)F)c4)nnc3s2)cc1 , state its recorded growth.
79.9% (inactive)

Give its growth value. Item: Cc1cc2ccccn2c1C(=O)c1ccc(C(=O)c2ccccc2)cc1
90.5% (inactive)

Quick one: growth for OCc1n(Cc2ccc3ccccc3c2)cc[n+]1Cc1ccc2ccccc2c1 ?
72.7% (inactive)

Fill blank: measured growth of the molecule CCN(CC)CCCCCCCNc1c2ccc(Cl)cc2nc2ccc(OC)cc12 is ____.
-92.1% (active)
